system: T1, extracellular domain of human IL23R (hIL23R ECD) (human, UniProt Q5VWK5 24-355)
T1 construct: The immunogen was an ECD-human IgG1 hinge-Fc fusion
T1 sequence: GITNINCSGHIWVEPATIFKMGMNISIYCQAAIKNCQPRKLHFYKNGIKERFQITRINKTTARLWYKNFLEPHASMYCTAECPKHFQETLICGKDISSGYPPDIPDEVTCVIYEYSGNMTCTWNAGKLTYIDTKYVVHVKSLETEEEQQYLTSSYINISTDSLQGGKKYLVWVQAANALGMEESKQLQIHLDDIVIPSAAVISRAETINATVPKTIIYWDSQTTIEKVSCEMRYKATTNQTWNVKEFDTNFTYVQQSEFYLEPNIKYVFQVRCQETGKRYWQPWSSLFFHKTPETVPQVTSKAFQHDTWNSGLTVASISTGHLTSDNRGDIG
assay.procedure: periplasmic extract ELISA (PE-ELISA) of phage clones, colorimetric
measurement.label: binding result

{"columns": ["binder", "measurement.label", "result"],
 "data": [
  ["hIL23R_VHH14 (VHH, Phagemid clone with his-tag, periplasmic extract) VHH: QVQLQESGGGLVQPGGSLRLSCAASGYTYCSYDMKWYRQAPGKKREFVSAIDSDGSTSYADSVKGRFTISQDNAKNTVYLQMNSLKPEDTAMYYCKTEGTVPVGVCPNYWGQGTQVTVSS", "binding result", "binds"],
  ["hIL23R_VHH16 (VHH, Phagemid clone with his-tag, periplasmic extract) VHH: QVQLQESGGGSVEAGGALTLSCVASGYTYCNYDIAWYRQAPGKERKFVSAIASDGSTSYADSVKGRFTISQDNAKNTVYLQMNSLKPEDTAMYYCKTDPIATMTRRCDPYWGQGTQVTVSS", "binding result", "binds"],
  ["hIL23R_VHH2 (VHH, Phagemid clone with his-tag, periplasmic extract) VHH: QVQLQESGGGSVQAGGSLRLSCAASGYTYCSYDMSWYRQAPGKKREFVSSFNSDGSTSYADSVKGRFTISQDNAKNTVYLQMNSLKPEDTAMYYCKTDPHADWGAPCGGDYWGQGTQVTVSS", "binding result", "binds"]
]}
